The entries below come with measured T/C values attached.
# Test system: L1210 leukemia ip in BDF1 mice, survival T/C
# protocol: NCI In Vivo Anticancer Drug Screen. Data for tumor model L1210 Leukemia (intraperitoneal) in B6D2F1 (BDF1) mice
# condition.summary: endpoint: mean survival time; dose: 400.0 mg/kg/injection; schedule: Q01DX001 (ip); vehicle: saline with Tween-80; higher = longer survival
Inconclusive results and toxic doses are left out.

| chem.smiles | T/C |
| --- | --- |
| O=c1ccn(Cc2cccc(Oc3ccccc3)c2)c(=O)[nH]1 | 92 % of control |
| O=C1c2ccccc2C(=O)N1CCCCCN1C(=O)c2ccccc2C1=O | 98 % of control |
| CCOC(=O)c1c[nH]c2cc(OCC(C)C)c(OCC(C)C)cc2c1=O | 86 % of control |

###

# System: L1210 leukemia ip in BDF1 mice, survival T/C
# protocol: NCI In Vivo Anticancer Drug Screen. Data for tumor model L1210 Leukemia (intraperitoneal) in B6D2F1 (BDF1) mice
# condition.summary: endpoint: mean survival time; dose: 100.0 mg/kg/injection; schedule: Q04DX002 (ip); vehicle: Klucel (hydroxypropylcellulose) (HPC); higher = longer survival
Toxic doses and inconclusive results are not listed.

| molecule | T/C |
| --- | --- |
| C/C(=N/NC(=O)c1ccc(N)cc1)c1ccc(C)cc1 | 110 % of control |
| O=C1c2c(c(-c3ccccc3)c3ccccc3c2-c2ccccc2)C(=O)C2C(c3ccccc3)c3ccccc3C(c3ccccc3)C12 (centres undefined) | 113 % of control |
| COC(=O)C1(c2ccccc2)C(c2ccccc2)=C(c2ccccc2)C(c2ccccc2)CC1c1ccccc1 (centres undefined) | 103 % of control |
| COC(=N)c1ccc(C)c(I)c1 | 91 % of control |
| Cc1ccc(N=Nc2ccc(C)cc2NC(=O)Nc2cc([N+](=O)[O-])ccc2C)cc1 | 92 % of control |
| NC(N)=N/N=C/c1cc(Cl)ccc1O | 106 % of control |
| CCN(CC)Cc1ccccc1COC(=O)c1ccc(Cl)cc1 | 96 % of control |
| Nc1cc2c3c(cccc3c1Br)C(=O)OC2=O | 97 % of control |
| O=C1c2ccccc2C(=Cc2c3ccccc3cc3ccccc23)c2ccccc21 | 94 % of control |

###

# Test system: L1210 leukemia ip in BDF1 mice, survival T/C
# protocol: NCI In Vivo Anticancer Drug Screen. Data for tumor model L1210 Leukemia (intraperitoneal) in B6D2F1 (BDF1) mice
# condition.summary: endpoint: mean survival time; dose: 400.0 mg/kg/injection; schedule: Q04DX002 (ip); vehicle: Klucel (hydroxypropylcellulose) (HPC); higher = longer survival
Toxic doses and inconclusive results are not listed.

| compound | T/C |
| --- | --- |
| O=C(O)c1c[nH]c2c(ccc3ccccc32)c1=O | 92 % of control |
| CSc1ccc(OC(=O)Nc2ccccc2C)cc1 | 114 % of control |
| O=S(=O)(c1ccccc1)S(=O)(=O)c1ccccc1 | 90 % of control |
| O=C1/C(=C\c2ccc([N+](=O)[O-])cc2)N2CCC1CC2 | 105 % of control |
| COc1cccc(CCC(=O)c2ccccc2)c1 | 94 % of control |
| COc1ccc(/C=N\NC(=O)c2ccncc2)cc1 | 118 % of control |
| CC(=O)Oc1c2ccccc2cc2c1ccc1ccccc12 | 106 % of control |
| O=C(/C=C\c1ccc(Cl)cc1)c1ccccc1 | 96 % of control |
| O=S(=O)(O)c1cc(I)c(O)c2ncccc12 | 95 % of control |
| Cc1ccc(CNC(=O)Nc2c(C)cccc2C)cc1C | 97 % of control |
| ClC1(Cl)C2(c3ccccc3)OC(c3ccccc3)(c3ccccc32)C1(Cl)Cl | 102 % of control |
| COC(=O)N/N=C/c1cc(OC)ccc1O | 104 % of control |
| COc1ccc(OC)c2[nH]c(-c3ccc(Cl)cc3)cc12 | 89 % of control |
| O=C(O)c1c[nH]c2c(Cl)cccc2c1=O | 107 % of control |
| S=P(N1CCOCC1)(N1CCOCC1)N1CCOCC1 | 113 % of control |
| NC(=O)Nc1ccccc1F | 100 % of control |
| O=[N+]([O-])c1ccc(-n2ccnc2)c([N+](=O)[O-])c1 | 93 % of control |
| COC(=O)NS(=O)(=O)C1=Cc2cccc3cccc1c23 | 113 % of control |
| O=[N+]1c2ccccc2N([O-])C2CCCCC21 (stereo unspecified) | 104 % of control |
| O=C(O)C1C(c2ccccc2)CC(=O)N1c1ccc(Cl)cc1 (stereo unspecified) | 94 % of control |
| CCCCCCCCCC(O)CCCC(O)C(O)CCCCCCC(=O)O (stereo unspecified) | 91 % of control |
| CC#CCCC(=O)OCC | 95 % of control |
| O=c1[nH]cnc2c1ncn2CCCCc1ccccc1 | 105 % of control |
| O=C(O)c1ccc(F)cc1F | 98 % of control |
| O=C1c2c(c(-c3ccccc3)c3ccccc3c2-c2ccccc2)C(=O)C2C(c3ccccc3)c3ccccc3C(c3ccccc3)C12 (stereo unspecified) | 98 % of control |
| C/C(=C\CC1(C)C(=O)CCC2(C)C1CCCC21OCCO1)Sc1ccc(Cl)cc1 (stereo unspecified) | 110 % of control |
